Examples of compounds with documented MTD at 5 days follow.
Experiment: In vivo MTD in CD-1 mice
Conditions: mouse, female CD-1 mice, 5 daily doses, unit inferred, read-out: Female CD-1 mice MTD 5DD
MEASURED ATTRIBUTE: MTD at 5 days

compound=C/C=C1\NC(=O)[C@H](Cc2ccccc2)NC(=O)[C@@H](C(C)C)NC(=O)[C@@H]([C@@H](C)CC)NC(=O)[C@H](NC(=O)[C@H](NC(=O)[C@H](CCCN)NC(=O)[C@H]2CCCN2C(=O)[C@H](NC(=O)[C@@H](NC(=O)[C@@H](NC(=O)[C@H](NC(=O)CC[C@@H](C)CC)C(C)C)[C@@H](C)O)C(C)C)C(C)C)[C@@H](C)CC)[C@@H](C)OC(=O)[C@H](C(C)C)NC1=O reported_value="0.175 to 0.35 mg/kg"
compound="C/C=C1\\NC(=O)[C@H](Cc2ccccc2)NC(=O)[C@@H](C(C)C)NC(=O)[C@@H]([C@@H](C)CC)NC(=O)[C@H](NC(=O)[C@H](NC(=O)[C@H](CCCN)NC(=O)[C@H]2CCCN2C(=O)[C@H](NC(=O)[C@@H](NC(=O)[C@@H](NC(=O)[C@H](NC(=O)CCCC(C)C)C(C)C)[C@@H](C)O)C(C)C)C(C)C)[C@@H](C)CC)[C@@H](C)OC(=O)[C@H](C(C)C)NC1=O [5-methylhexanoic KF, reference compound]" reported_value="0.175 to 0.35 mg/kg"

* * *

Tested on: LOVO
Test: In vitro cytotoxic activity, SRB assay
Type: cell-based, human
Conditions: 48 hours exposure
MEASURED ATTRIBUTE: LC50 (50% lethal concentration) (µM)

compound=C/C=C1\NC(=O)[C@H](Cc2ccccc2)NC(=O)[C@@H](C(C)C)NC(=O)[C@@H]([C@@H](C)CC)NC(=O)[C@H](NC(=O)[C@H](NC(=O)[C@H](CCCN)NC(=O)[C@H]2CCCN2C(=O)[C@H](NC(=O)[C@@H](NC(=O)[C@@H](NC(=O)[C@H](NC(=O)CC[C@H](C)CC)C(C)C)[C@@H](C)O)C(C)C)C(C)C)[C@@H](C)CC)[C@@H](C)OC(=O)[C@H](C(C)C)NC1=O reported_value=2.28
compound=C/C=C1\NC(=O)[C@H](Cc2ccccc2)NC(=O)[C@@H](C(C)C)NC(=O)[C@@H]([C@@H](C)CC)NC(=O)[C@H](NC(=O)[C@H](NC(=O)[C@H](CCCN)NC(=O)[C@H]2CCCN2C(=O)[C@H](NC(=O)[C@@H](NC(=O)[C@@H](NC(=O)[C@H](NC(=O)CC[C@@H](C)CC)C(C)C)[C@@H](C)O)C(C)C)C(C)C)[C@@H](C)CC)[C@@H](C)OC(=O)[C@H](C(C)C)NC1=O reported_value=0.58
compound="C/C=C1\\NC(=O)[C@H](Cc2ccccc2)NC(=O)[C@@H](C(C)C)NC(=O)[C@@H]([C@@H](C)CC)NC(=O)[C@H](NC(=O)[C@H](NC(=O)[C@H](CCCN)NC(=O)[C@H]2CCCN2C(=O)[C@H](NC(=O)[C@@H](NC(=O)[C@@H](NC(=O)[C@H](NC(=O)CCCC(C)C)C(C)C)[C@@H](C)O)C(C)C)C(C)C)[C@@H](C)CC)[C@@H](C)OC(=O)[C@H](C(C)C)NC1=O [5-methylhexanoic KF, reference compound]" reported_value=0.428
